Target: HLA-A*32:01
Assay: IEDB peptide-MHC binding, purified MHC/competitive/radioactivity; filed as Kd, often an IC50 or EC50 that approximates it; bounds were set here for any values at or beyond the usual limits of such assays
Details: source organism: Mammarenavirus juninense

| sequence-string | measurement-target | uom | Kd |
| --- | --- | --- | --- |
| LCLSGDGWPY | HLA-A*32:01 | µM | 16.9 |

====

Target: HLA-A*32:01
Assay: IEDB peptide-MHC binding, purified MHC/competitive/radioactivity; filed as Kd, often an IC50 or EC50 that approximates it; bounds were set here for any values at or beyond the usual limits of such assays
Settings: source organism: Dengue virus 2 Peru/IQT2913/1996
readout: Kd (nM)

| sequence-string | measurement-target | readout | observed-value |
| --- | --- | --- | --- |
| KTPVESWEEI | HLA-A*32:01 | Kd | 1610 |

====

Molecular target: HLA-B*35:01
Assay: IEDB peptide-MHC binding, purified MHC/competitive/radioactivity; filed as Kd, often an IC50 or EC50 that approximates it; bounds were set here for any values at or beyond the usual limits of such assays
Settings: source organism: Hepatitis C virus (isolate H)

| sequence-string | Kd / nM |
| --- | --- |
| HPALVFDITK | 433 |

====

Target: HLA-A*02:03
Experiment: IEDB peptide-MHC binding, purified MHC/competitive/radioactivity; filed as Kd, often an IC50 or EC50 that approximates it; bounds were set here for any values at or beyond the usual limits of such assays
Settings: source organism: Dengue virus 2 Peru/IQT2913/1996
pKd: −log10 of the molar value.

| sequence-string | pKd |
| --- | --- |
| TLMAMDLGEL | 8.08 |

====

Target: HLA-A*30:01
Experiment: IEDB peptide-MHC binding, purified MHC/competitive/radioactivity; filed as Kd, often an IC50 or EC50 that approximates it; bounds were set here for any values at or beyond the usual limits of such assays
Conditions: source organism: Vaccinia virus WR
pKd: −log10 of the molar value.
The entries below come with measured pKd values attached.

| sequence-string | pKd |
| --- | --- |
| KIRPTRSVY | 8.14 |
| RARFIGGYI | 9.58 |
| RYRSGFWII | 8.06 |
| KALSKLISK | 7.15 |
| TVRDGQLEV | 7.89 |
| YTFFSYLMK | 6.33 |
| FSKKKVCFV | 5.94 |
| KVREHTFVK | 8.67 |
| SALYSYASA | 7.44 |
| RTYSSSIIA | 7.30 |
| MQKCYFSYK | 9.28 |
| KTSSGRMPV | 8.71 |
| KTLDISSFY | 7.63 |
| VMVTSKPLF | 4.81 |
| SKYAGINIL | 6.26 |
| HLKNSAENK | 6.06 |

====

Target: HLA-A*01:01
Assay: IEDB peptide-MHC binding, purified MHC/direct/fluorescence; filed as Kd, often an IC50 or EC50 that approximates it; bounds were set here for any values at or beyond the usual limits of such assays
Conditions: source organism: Vibrio vulnificus YJ016

| sequence-string | measurement-target | Kd |
| --- | --- | --- |
| EPADHLAIM | HLA-A*01:01 | ≥ 20 µM |

====

Biological target: HLA-B*15:17
Experiment: IEDB peptide-MHC binding, purified MHC/competitive/fluorescence; filed as Kd, often an IC50 or EC50 that approximates it; bounds were set here for any values at or beyond the usual limits of such assays
Conditions: source organism: Burkholderia mallei NCTC 10229
pKd: −log10 of the molar value.
readout: pKd

| sequence-string | measurement-target | readout | observed-value |
| --- | --- | --- | --- |
| RRSLLAHVR | HLA-B*15:17 | pKd | ≤ 4.70 |

====

Biological target: HLA-A*69:01
Assay: IEDB peptide-MHC binding, purified MHC/competitive/fluorescence; filed as Kd, often an IC50 or EC50 that approximates it; bounds were set here for any values at or beyond the usual limits of such assays
Conditions: source organism: Vibrio parahaemolyticus RIMD 2210633

| sequence-string | Kd |
| --- | --- |
| GTVPTDNPF | ≥ 20 µM |

====

Biological target: HLA-B*27:05
Experiment: IEDB peptide-MHC binding, purified MHC/direct/fluorescence; filed as Kd, often an IC50 or EC50 that approximates it; bounds were set here for any values at or beyond the usual limits of such assays
Conditions: source organism: Vibrio cholerae

| sequence-string | Kd |
| --- | --- |
| MMFDAMGAL | ≥ 20 µM |

====

Target: HLA-A*11:01
Test: IEDB peptide-MHC binding, purified MHC/direct/fluorescence; filed as Kd, often an IC50 or EC50 that approximates it; bounds were set here for any values at or beyond the usual limits of such assays
Conditions: source organism: Pseudomonas viridiflava
pKd: −log10 of the molar value.
readout: pKd

| sequence-string | readout | observed-value |
| --- | --- | --- |
| DYDQRDYGF | pKd | ≤ 4.70 |

====

Target: HLA-A*02:50
Experiment: IEDB peptide-MHC binding, purified MHC/competitive/fluorescence; filed as Kd, often an IC50 or EC50 that approximates it; bounds were set here for any values at or beyond the usual limits of such assays
Details: source organism: Shigella boydii CDC 3083-94
pKd: −log10 of the molar value.
readout: pKd

| sequence-string | observed-value |
| --- | --- |
| GMAEDLQSL | ≥ 10.00 |

====

Target: HLA-A*31:01
Test: IEDB peptide-MHC binding, purified MHC/direct/fluorescence; filed as Kd, often an IC50 or EC50 that approximates it; bounds were set here for any values at or beyond the usual limits of such assays
Conditions: source organism: Xanthobacter autotrophicus

| sequence-string | Kd |
| --- | --- |
| GVWTRDGNR | 59 nM |

====

Biological target: HLA-B*15:42
Assay: IEDB peptide-MHC binding, purified MHC/competitive/fluorescence; filed as Kd, often an IC50 or EC50 that approximates it; bounds were set here for any values at or beyond the usual limits of such assays
Conditions: source organism: Human herpesvirus 4 strain B95-8
pKd: −log10 of the molar value.
readout: pKd

| sequence-string | readout | observed-value |
| --- | --- | --- |
| DEVEFLGHY | pKd | ≤ 5.30 |

====

Biological target: HLA-B*51:01
Assay: IEDB peptide-MHC binding, purified MHC/competitive/fluorescence; filed as Kd, often an IC50 or EC50 that approximates it; bounds were set here for any values at or beyond the usual limits of such assays
Conditions: source organism: Giardia lamblia ATCC 50803
readout: Kd

| sequence-string | measurement-target | observed-value |
| --- | --- | --- |
| TELPLAYER | HLA-B*51:01 | ≥ 20 µM |

====

Molecular target: HLA-A*02:01
Assay: IEDB peptide-MHC binding, purified MHC/competitive/fluorescence; bounds were set here for any values at or beyond the usual limits of such assays
Conditions: source organism: Vaccinia virus WR
The entries below come with measured IC50 values attached.
readout: IC50

| sequence-string | observed-value |
| --- | --- |
| FGLYKSINV | 0.744 µM |
| GGILPWTKI | ≥ 125 µM |
| YSHGDIKAS | ≥ 72 µM |

====

Molecular target: HLA-C*06:02
Test: IEDB peptide-MHC binding, purified MHC/competitive/fluorescence; filed as Kd, often an IC50 or EC50 that approximates it; bounds were set here for any values at or beyond the usual limits of such assays
Details: source organism: Corynebacterium glutamicum ATCC 13032
pKd: −log10 of the molar value.

| sequence-string | measurement-target | pKd |
| --- | --- | --- |
| RIFPATHYV | HLA-C*06:02 | 7.45 |

====

Molecular target: HLA-B*40:01
Experiment: IEDB peptide-MHC binding, purified MHC/competitive/radioactivity; filed as Kd, often an IC50 or EC50 that approximates it; bounds were set here for any values at or beyond the usual limits of such assays
Conditions: source organism: Mammarenavirus juninense
pKd: −log10 of the molar value.

| sequence-string | pKd |
| --- | --- |
| PDVLRSDVY | ≤ 4.12 |

====

Molecular target: HLA-A*31:01
Assay: IEDB peptide-MHC binding, purified MHC/direct/fluorescence; filed as Kd, often an IC50 or EC50 that approximates it; bounds were set here for any values at or beyond the usual limits of such assays
Conditions: source organism: Mycoplasmoides genitalium

| sequence-string | Kd [nM] |
| --- | --- |
| YSDIPRLKK | 767 |

====

Molecular target: HLA-A*03:01
Experiment: IEDB peptide-MHC binding, purified MHC/direct/fluorescence; filed as Kd, often an IC50 or EC50 that approximates it; bounds were set here for any values at or beyond the usual limits of such assays
Conditions: source organism: Xanthobacter autotrophicus
pKd: −log10 of the molar value.

| sequence-string | measurement-target | pKd |
| --- | --- | --- |
| GVWTRDGNR | HLA-A*03:01 | ≤ 4.70 |
